# Test system: endogenous Class I HDACs/HDAC6
# ASSAY_DETAILS: Cellular HDAC assay, Boc_Lys_Ac substrate, Jurkat E6.1 cells
# Assay type: cell-based
# COND: dilution prepared 21 h previously in DMSO or aqueous buffer; no pre-incubation with cells; read-out: cellular IC50, Boc_Lys_Ac substrate
MEASUREMENT_TYPE: pIC50
Recall that pIC50 is obtained by taking minus log10 of the concentration measured in molar.

What value of pIC50 has been recorded for this entry: Nc1ccccc1NC(=O)CCCCCC(=O)Nc1ccccc1
4.82

* * *

# ASSAY_DETAILS: Pharmacokinetics after a single SC or PO dose
# Assay type: in vivo, mouse
# COND: mice; PO 50 mg eq./kg; brain; read-out: Observed Cmax
MEASUREMENT_TYPE: Cmax (µM)
Kindly provide the numeric value in µM only, without the unit symbol.

What value of Cmax has been recorded for this entry: Nc1ccccc1NC(=O)CCCCCC(=O)Nc1ccccc1
0.0243

* * *

# ASSAY_DETAILS: Pharmacokinetics after a single SC or PO dose
# Type: in vivo, mouse
# COND: C57BL/6NCRL, mouse, 4.22 mg/kg; mice; SC 4.22 mg eq./kg; plasma
MEASUREMENT_TYPE: AUC(0-inf) (µM·h)
Kindly provide the numeric value in µM·h only, without the unit symbol.

What value of AUC(0-inf) has been recorded for this entry: Nc1ccccc1NC(=O)CCCCCC(=O)Nc1ccccc1
1.63

* * *

# ASSAY_DETAILS: Partition into erythrocytes
# Assay type: in vitro ADME
# COND: whole blood; mouse; data not shown
MEASUREMENT_TYPE: blood plasma ratio

What value of blood plasma ratio has been recorded for this entry: Nc1ccccc1NC(=O)CCCCCC(=O)Nc1ccccc1
~3

* * *

# ASSAY_DETAILS: Permeability and efflux in Caco2 monolayers
# Type: in vitro ADME
# COND: human, Caco-2, pH 7.4
# Experimental: Caco-2 cells (obtained from ECACC) were used after a 21-day cell culture period in 24-well Transwell plates (seeding density of 2×10^5 cells/well). […] After 1 hr incubation at 37°C, aliquots were taken from the acceptor chamber of each Transwell and added to acetonitrile containing analytical internal standard (carbamazepine) in a 96 well plate. Concentrations of test compound in the samples were measured by high performance liquid-chromatography/mass spectroscopy (LC-MS/MS). […]
MEASUREMENT_TYPE: Papp A→B at 1 h, 10 µM (×10⁻⁶ cm/s)
Kindly provide the numeric value in ×10⁻⁶ cm/s only, without the unit symbol.

What value of Papp A→B at 1 h, 10 µM has been recorded for this entry: Nc1ccccc1NC(=O)CCCCCC(=O)Nc1ccccc1 [Compound 4b]
15.6

* * *

# STUDY_TARGET: HDAC3-NcoR2 (Homo sapiens, UniProt O15379)
# Construct: purified recombinant human full length HDAC1 (cat# 50051), HDAC2 (cat# 50052), HDAC3-NcoR2 (cat# 50003); purchased BPS Bioscience (San Diego, CA) 50003
# Sequence (O15379 whole entry): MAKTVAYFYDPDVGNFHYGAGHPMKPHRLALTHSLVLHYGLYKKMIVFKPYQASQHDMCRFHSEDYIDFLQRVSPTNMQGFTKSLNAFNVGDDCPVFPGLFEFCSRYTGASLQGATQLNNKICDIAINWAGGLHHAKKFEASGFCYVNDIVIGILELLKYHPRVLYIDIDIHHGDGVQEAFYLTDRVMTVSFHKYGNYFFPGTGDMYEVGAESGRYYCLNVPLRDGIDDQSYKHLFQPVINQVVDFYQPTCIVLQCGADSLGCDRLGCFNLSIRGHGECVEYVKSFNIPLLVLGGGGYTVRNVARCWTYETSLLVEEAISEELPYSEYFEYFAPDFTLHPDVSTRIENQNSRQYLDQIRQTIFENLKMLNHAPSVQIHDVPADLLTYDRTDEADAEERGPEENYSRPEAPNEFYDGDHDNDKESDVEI
# Sequence (Q9Y618 395-489 partner limits assumed): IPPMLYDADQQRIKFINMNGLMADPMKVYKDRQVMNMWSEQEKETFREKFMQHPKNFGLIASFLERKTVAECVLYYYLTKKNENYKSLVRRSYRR
# ASSAY_DETAILS: Two-step fluorogenic deacetylase assay, recombinant HDAC3
# Assay type: biochemical
# COND: 0 min pre-incubation with enzyme, then 60 min substrate, 37°C
MEASUREMENT_TYPE: pIC50
Recall that pIC50 is obtained by taking minus log10 of the concentration measured in molar.

What value of pIC50 has been recorded for this entry: Nc1ccccc1NC(=O)CCCCCC(=O)Nc1ccccc1
6.19

* * *

# ASSAY_DETAILS: Pharmacokinetics after a single SC or PO dose
# Type: in vivo, mouse
# COND: C57BL/6NCRL, mouse, brain, sc, 4.22 mg/kg, mice; SC 4.22 mg eq./kg; brain; read-out: Observed Tmax
MEASUREMENT_TYPE: Tmax (min)
Kindly provide the numeric value in min only, without the unit symbol.

What value of Tmax has been recorded for this entry: Nc1ccccc1NC(=O)CCCCCC(=O)Nc1ccccc1
30

* * *

# ASSAY_DETAILS: Pharmacokinetics after a single SC or PO dose
# Format: in vivo, mouse
# COND: C57BL/6NCRL, mouse, brain/plasma; sc 4.22 mg eq./kg; 0.5 hr; mean (standard deviation), N = 3; read-out: B:P
MEASUREMENT_TYPE: Kp at 0.5 hr
Lab note: jot down the number only; don't add units.

What value of Kp at 0.5 hr has been recorded for this entry: Nc1ccccc1NC(=O)CCCCCC(=O)Nc1ccccc1
0.09

* * *

# ASSAY_DETAILS: Pharmacokinetics after a single SC or PO dose
# Assay type: in vivo, mouse
# COND: C57BL/6NCRL, mouse, 50 mg/kg; mice; PO 50 mg eq./kg; brain
MEASUREMENT_TYPE: AUC(0-inf) (µM·h)
Kindly provide the numeric value in µM·h only, without the unit symbol.

What value of AUC(0-inf) has been recorded for this entry: Nc1ccccc1NC(=O)CCCCCC(=O)Nc1ccccc1
0.129

* * *

# ASSAY_DETAILS: Permeability and efflux in Caco2 monolayers
# Format: in vitro ADME
# COND: human, Caco-2, pH 7.4, read-out: effective efflux ratio
# Procedure: Caco-2 cells (obtained from ECACC) were used after a 21-day cell culture period in 24-well Transwell plates (seeding density of 2×10^5 cells/well). […] After 1 hr incubation at 37°C, aliquots were taken from the acceptor chamber of each Transwell and added to acetonitrile containing analytical internal standard (carbamazepine) in a 96 well plate. Concentrations of test compound in the samples were measured by high performance liquid-chromatography/mass spectroscopy (LC-MS/MS). […]
MEASUREMENT_TYPE: efflux ratio at 1 h, 10 µM
Lab note: jot down the number only; don't add units.

What value of efflux ratio at 1 h, 10 µM has been recorded for this entry: Nc1ccccc1NC(=O)CCCCCC(=O)Nc1ccccc1
3.5

* * *

# ASSAY_DETAILS: Pharmacokinetics after a single SC or PO dose
# Type: in vivo, mouse
# COND: C57BL/6NCRL, mouse, brain, po, 50 mg/kg, mice; PO 50 mg eq./kg; brain; read-out: Observed Tmax
MEASUREMENT_TYPE: Tmax
Mention the unit after the number when you answer.

What value of Tmax has been recorded for this entry: Nc1ccccc1NC(=O)CCCCCC(=O)Nc1ccccc1
1 h

* * *

# ASSAY_DETAILS: Pharmacokinetics after a single SC or PO dose
# Format: in vivo, mouse
# COND: C57BL/6NCRL, mouse, brain, sc, 4.22 mg/kg, mice; SC 4.22 mg eq./kg; brain; read-out: Observed Cmax
MEASUREMENT_TYPE: Cmax (nM)
Kindly provide the numeric value in nM only, without the unit symbol.

What value of Cmax has been recorded for this entry: Nc1ccccc1NC(=O)CCCCCC(=O)Nc1ccccc1
134

* * *

# STUDY_TARGET: HDAC3-NcoR2 (Homo sapiens, UniProt O15379)
# Construct: purified recombinant human full length HDAC1 (cat# 50051), HDAC2 (cat# 50052), HDAC3-NcoR2 (cat# 50003); purchased BPS Bioscience (San Diego, CA) 50003
# ASSAY_DETAILS: Two-step fluorogenic deacetylase assay, recombinant HDAC3
# Assay type: biochemical
# COND: standard screening format; free base, DMSO stock
MEASUREMENT_TYPE: IC50

What value of IC50 has been recorded for this entry: Nc1ccccc1NC(=O)CCCCCC(=O)Nc1ccccc1
254 nM

* * *

# ASSAY_DETAILS: Pharmacokinetics after a single SC or PO dose
# Assay type: in vivo, mouse
# COND: C57BL/6NCRL, mouse, brain/plasma; po 50 mg eq./kg; 8 hr; mean (standard deviation), N = 3; read-out: B:P
# Procedure: The pharmacokinetic parameters of 4b following dosing with either 5 mg/kg subcutaneous (sc) injection using the soluble formulation, or 4b per oral (po) by gavage (50 mg/kg in suspension) in mice plasma and whole brain homogenate are shown in Fig. 4 and Table 1. Triplicate dose formulation samples were retained and analyzed to ensure an accurate concentration of 4b was injected. The sc dose was calculated to be on average 84.3% of the 5 mg/kg target dose. […]
MEASUREMENT_TYPE: Kp at 8 hr
Lab note: jot down the number only; don't add units.

What value of Kp at 8 hr has been recorded for this entry: Nc1ccccc1NC(=O)CCCCCC(=O)Nc1ccccc1
0.2

* * *

# STUDY_TARGET: human recombinant HDAC1 (Homo sapiens)
# Construct: purified recombinant human full length HDAC1 (cat# 50051)
# Sequence (Q13547 whole entry): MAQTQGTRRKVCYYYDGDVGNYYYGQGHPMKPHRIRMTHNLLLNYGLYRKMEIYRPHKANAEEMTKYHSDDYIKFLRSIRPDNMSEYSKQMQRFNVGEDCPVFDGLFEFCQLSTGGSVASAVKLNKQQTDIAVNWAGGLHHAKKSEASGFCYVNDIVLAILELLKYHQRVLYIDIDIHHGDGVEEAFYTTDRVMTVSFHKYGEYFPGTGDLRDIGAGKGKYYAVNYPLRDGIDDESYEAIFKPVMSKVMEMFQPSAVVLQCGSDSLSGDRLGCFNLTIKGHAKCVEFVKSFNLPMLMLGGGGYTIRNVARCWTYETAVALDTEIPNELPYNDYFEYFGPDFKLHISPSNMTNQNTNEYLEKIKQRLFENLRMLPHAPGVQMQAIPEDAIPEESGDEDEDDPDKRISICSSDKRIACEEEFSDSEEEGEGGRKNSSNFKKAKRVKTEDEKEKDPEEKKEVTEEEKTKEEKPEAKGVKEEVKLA
# ASSAY_DETAILS: Two-step fluorogenic deacetylase assay, recombinant HDAC1
# Description: To assess the biochemical and cellular potency of 4b and its conversion products/metabolites, we utilized the two-step fluorogenic assay which measures the HDAC-mediated catalytic conversion of synthetic acetylated lysine substrates. […] However, the relatively labile and sterically more demanding trifluoracetyl group is readily hydrolyzed by the catalytically less avid Class IIa enzymes, allowing measurement of Class IIa activity using the 2-step fluorogenic assay. […]
MEASUREMENT_TYPE: pIC50
Recall that pIC50 is obtained by taking minus log10 of the concentration measured in molar.

Notebook: pull reported pIC50 for human recombinant HDAC1 (Homo sapiens), entry Nc1ccccc1NC(=O)CCCCCC(=O)Nc1ccccc1
5.82
